Each entry below lists one item and its recorded TGI value.
Tested on: HT29 colon
Assay: NCI tumour cell line growth inhibition, 48 h
READOUT TYPE: TGI (µM)

                                    compound  qual  numeric_value
 0  C[n+]1c(-c2ccccc2)cc2/c(=C\c3ccccc3)c3ccccc3n21     =           3.22
 1   COc1cc2cc3c4c(cc(OC)c(OC)c4c2cc1OC)CCN3     =           96.2
 2  COc1ccc(C2CC(c3cc(Cl)c(C)cc3O)=NN2c2ccc(S(N)(=O)=O)cc2)cc1OC (configuration not stated)     =           6.48
 3  C=CN1CCN(c2ccccc2)P1(=O)Oc1ccccc1 (configuration not stated)     >            100
 4  O=C(O)CC(O)(c1ccccc1C(=O)O)c1cccc2ccccc12 (configuration not stated)     >            100
 5  CC1CSC(=S)N1C(=O)N1C(=S)SCC1C (configuration not stated)     =             73
 6  S=C(/C=C1\SC(=Nc2ccccc2)C(=Nc2ccccc2)N1c1ccccc1)Nc1ccccc1     >            100
 7  COc1ccccc1N1C(=O)/C(=C\c2cc(OC)c(OC)c(OC)c2)SC1c1ccccc1 (configuration not stated)     >            100
 8  O=C(Oc1cccc2cccnc12)c1cc2cc(CCl)ccc2oc1=O     =             33
 9  COc1cccc2c1-c1ccccc1[C@H](Nc1ccccc1)[C@@]2(C)O     =             14
10  CCC(Cc1cnc2nc(N)nc(N)c2n1)c1ccc(C(=O)NC(CCC(=O)O)C(=O)O)cc1 (configuration not stated)     >            100
11  O=C(CNc1cccc(Cl)c1)Nn1c(-c2ccccc2)nc2ccccc2c1=O     =           24.9
12  [O-]c1ccccc1/C=N/c1nccs1.[O-]c1ccccc1/C=N/c1nccs1.[O]=[U+2]=[O]     >            100
13  O=C1NC(N/N=C/c2c[nH]c3ccccc23)=N/C1=C\c1cccs1     >            100
14  CC(C)(C)c1ccc(C(=O)Nc2sc3c(c2C#N)CCC(=O)C3)cc1     =           3.83
15  C=C1CC(Cn2ccc(=O)[nH]c2=O)(c2ccc(OC)cc2)OC1=O (configuration not stated)     =           31.2
16      COc1cc(Nc2cnc3cc(N)ccc3n2)cc(OC)c1OC     >            100
17  Cc1cc(OCC(O)CO)ccc1-c1ccccc1 (configuration not stated)     >            100
18  O=C(O/N=C1/CCCC/C1=C\c1ccccc1)c1ccc(Cl)c(Cl)c1     =           48.9
19                Cc1c2ccccc2cc2nc3ccccc3n12     >             10
20  Nc1ncnc2c1ncn2C1OC(CSCc2ccc(Cl)cc2)C(O)C1O (configuration not stated)     >            100
21  COc1ccc(N2C(=O)C3CC(c4ccc(C)cc4)c4c([nH]c5ccccc45)C3C2=O)cc1 (configuration not stated)     >            100
